Consider the following compounds and their measured inhibition readings.
Target: Mannose-6-phosphate isomerase (Homo sapiens) (UniProt P34949)
Sequence (P34949 whole entry, looked up): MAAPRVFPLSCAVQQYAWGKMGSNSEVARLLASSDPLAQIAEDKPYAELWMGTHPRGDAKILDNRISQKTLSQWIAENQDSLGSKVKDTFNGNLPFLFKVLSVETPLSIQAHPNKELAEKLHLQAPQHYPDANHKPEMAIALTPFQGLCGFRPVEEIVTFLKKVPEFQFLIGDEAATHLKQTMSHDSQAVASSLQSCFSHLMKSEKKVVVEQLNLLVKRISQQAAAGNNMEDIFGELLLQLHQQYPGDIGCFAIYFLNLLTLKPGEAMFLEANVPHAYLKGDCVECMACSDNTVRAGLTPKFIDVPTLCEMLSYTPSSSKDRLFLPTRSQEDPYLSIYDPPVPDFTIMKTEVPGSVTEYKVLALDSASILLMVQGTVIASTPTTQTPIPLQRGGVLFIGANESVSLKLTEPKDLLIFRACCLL
Assay: inhibitors of human PMI, primary screen, biochemical, fluorescence intensity, coupled assay (AID 1209);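 also: plate controls were DMSO vehicle for no effect and wells lacking substrate for full effect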
Details: purified PMI enzyme, at 20 µM, stronger effect = higher value
The whole screen tested about 190,000 compounds, of which about 810 (0.43%) were called active. This excerpt belongs to a sample that is enriched for actives.
readout.name: inhibition (%)

• O=C(O)c1cc2c(ccc3ccccc32)o1 = 4.1
• COC(=O)CNC(=O)Cn1cnc2sc(C)c(S(=O)(=O)N3CCC(C)CC3)c2c1=O = -9
• CC(C)NC(=S)Nc1cccc2cnccc12 = -4.7
• Cc1ccc(CNC(=O)CCCCn2c(=O)[nH]c3ccsc3c2=O)cc1 = -4.3
• CCN(CC)S(=O)(=O)N1CCC(C(=O)NCCN2CCOCC2)CC1 = -6.8
• O=C(C(=O)N1CCN(c2ccc(F)cc2)CC1)N1CCCCC1 = 9.4
• Cc1cc(Oc2ccccc2)nc(SCC(N)=O)n1 = -2
• CC(C(=O)Nc1ccccc1C(=O)O)n1c(C(F)(F)F)nc2ccccc21 (centres undefined) = 1.2
• Cc1ccc(S(=O)(=O)N/N=C/c2ccc(OS(=O)(=O)c3ccc(C)c([N+](=O)[O-])c3)cc2)cc1 = 1.6

###

Molecular target: Mannose-6-phosphate isomerase (Homo sapiens) (UniProt P34949)
Test: inhibitors of human PMI, primary screen, biochemical, fluorescence intensity, coupled assay (AID 1209);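 also: plate controls were DMSO vehicle for no effect and wells lacking substrate for full effect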
Settings: purified PMI enzyme, at 20 µM
About 810 (0.43%) of roughly 190,000 compounds were called active. Rule as the data show it: active = inhibition above about 50%; inactive = the rest. The list comes from a sample in which actives are over-represented; it also holds close analogues and randomly drawn compounds.
Outcome codes: yes (active), no (inactive)

- CC1(C)Cc2c(sc(N)c2C#N)C(C)(C)N1: no
- COc1cc(C(=S)N2CCN(c3cccc(Cl)c3)CC2)ccc1O: yes
- CC(=O)Nc1cc2nn(-c3ccccc3)nc2cc1Cl: no
- CCOC(=O)c1c(C)oc2c1c(C=NC1CCS(=O)(=O)C1)c(O)c1ccccc12 (centres undefined): yes
- Cc1nn(-c2ccccc2)c(Cl)c1C(=O)Nc1ccc(N2CCOCC2)cc1: no
- Cn1c(=O)n(C)c2cc([N+](=O)[O-])c(N3CCN(S(C)(=O)=O)CC3)cc21: no
- CCOC(=O)c1c(C)oc2c1c(C(c1cccnc1)N1CCN(C)CC1)c(O)c1ccccc12 (centres undefined): no
- CCOc1cc(/C=N/O)ccc1OCc1ccc(F)cc1: no
- O=C(O)CSc1nnc(Cn2nnc3ccccc32)n1CCc1ccccc1: no
- CCOC(=O)c1c(C)oc2c1c(C(c1cccnc1)N1CCCCC1)c(O)c1ccccc12 (centres undefined): no
- CCOc1ccc(NC(=O)N2CCC(c3nc4ccccc4[nH]3)CC2)cc1: no
- O=C(O)CCN=Cc1c(O)c2ccccc2oc1=O: no
- CN(Cc1ccccc1)C(=O)COC(=O)c1ccc(Cl)c(N)c1: no
- CCOC(=O)c1c(-c2ccc(F)cc2)cn2ccccc12: no

Where these numbers come from: PubChem BioAssay AID1209
